Reported Papp B→A values follow for various compounds
Procedure Text: Apparent permeability across basolateral to apical side in MDCK-MDR1 cells
Format: ADME, cell-based, Canis lupus familiaris
Condition Summary: dog, read-out: permeability
Please make sure the unit comes right after the number.

>>> print(df.to_string())
                                        mol  value_kind  experimental_result
0  O=C(c1ccc(-c2cnn3cccnc23)cc1)N(c1ncccc1C(F)(F)F)[C@@H]1CCCNC1    Papp B→A      26.4 ×10⁻⁶ cm/s

## Task Report Papp B→A for `Cc1cccnc1N(C(=O)c1ccc(-c2cnn3cccnc23)cc1)[C@@H]1CCCNC1` please.
## Result 15.7 ×10⁻⁶ cm/s

* * *

Reported pIC50 values follow for various molecules
Procedure Text: Cytotoxicity against rat Bone marrow cell assessed as inhibition of cell growth with (R)-4-(3H-[1,2,3]triazolo[4,5-b]pyridin-3-yl)-N-(3-chloropyridin-2-yl)-N-(piperidin-3-yl) benzamide as high potent effect standard by celltiter-glo assay
Type: toxicity, cell-based
Condition Summary: rat, rat bone marrow cells
# pIC50 is unitless: minus log10 of the molar concentration; print number only

In [3]: df
Out[3]:
                                   molecule  experimental_result
0  C[C@@H]1CNC[C@H](N(C(=O)c2ccc(-n3nnc4cccnc43)cc2)c2ncccc2Cl)C1 (racemic)                 4.45
1  O=C(c1ccc(-c2cnn3cccnc23)cc1)N(c1ncccc1C(F)(F)F)[C@@H]1CCCNC1                 4.67
2  C[C@H]1CNC[C@H](N(C(=O)c2ccc(-n3nnc4cccnc43)cc2)c2ncccc2Cl)C1 (racemic)                 4.43

## Task Report pIC50 for `Cc1cnc2c(c1)nnn2-c1ccc(C(=O)N(c2ncccc2Cl)[C@@H]2CCCNC2)nc1` please.
## Result 4.57

## Task Report pIC50 for `O=C(c1ccc(-n2nnc3cccnc32)cc1)N(c1ncccc1OC(F)(F)F)[C@@H]1CCCNC1` please.
## Result 5.19

## Task Report pIC50 for `Cc1nccnc1N(C(=O)c1ccc(-n2nnc3cccnc32)cc1)[C@@H]1CCCNC1` please.
## Result 4.96

## Task Report pIC50 for O=C(c1ccc(-n2nnc3cccnc32)cc1)N(c1ncccc1Cl)[C@H]1CNC[C@H](CO)C1 (racemic) please.
## Result 5.00

## Task Report pIC50 for CO[C@H]1CNC[C@H](N(C(=O)c2ccc(-n3nnc4cccnc43)cc2)c2ncccc2Cl)C1 (racemic) please.
## Result 4.12

* * *

Assay Target: Proprotein convertase subtilisin/kexin type 9 (Homo sapiens)
Sequence (Q8NBP7 31-152 limits assumed): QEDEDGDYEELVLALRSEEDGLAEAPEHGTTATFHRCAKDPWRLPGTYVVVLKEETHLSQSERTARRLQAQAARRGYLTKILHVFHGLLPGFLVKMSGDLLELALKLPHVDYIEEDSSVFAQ
Sequence (Q8NBP7 153-692 limits assumed): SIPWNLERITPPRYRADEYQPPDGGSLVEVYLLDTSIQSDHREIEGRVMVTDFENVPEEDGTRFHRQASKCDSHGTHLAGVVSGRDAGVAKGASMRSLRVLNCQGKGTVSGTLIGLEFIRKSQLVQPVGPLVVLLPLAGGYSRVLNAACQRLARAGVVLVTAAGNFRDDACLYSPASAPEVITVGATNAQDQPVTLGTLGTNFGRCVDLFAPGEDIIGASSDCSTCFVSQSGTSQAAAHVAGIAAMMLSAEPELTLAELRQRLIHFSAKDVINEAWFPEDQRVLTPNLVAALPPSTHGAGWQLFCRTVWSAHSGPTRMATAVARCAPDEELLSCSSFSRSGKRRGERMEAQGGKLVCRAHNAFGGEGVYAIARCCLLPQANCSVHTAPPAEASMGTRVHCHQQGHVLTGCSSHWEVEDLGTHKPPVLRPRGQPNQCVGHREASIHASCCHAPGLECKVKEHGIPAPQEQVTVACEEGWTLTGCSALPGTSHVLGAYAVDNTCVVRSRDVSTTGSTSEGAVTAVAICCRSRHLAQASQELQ
Procedure Text: Inhibition of full length human PCSK9 expressed in human Huh-7 cells by ELISA analysis
Assay type: cell-based
Value Kind: pIC50
# pIC50 is unitless: minus log10 of the molar concentration; print number only

Here's what some known entries look like.
In [3]: df
Out[3]:
                                   compound  experimental_result
0  Cc1cccnc1N(C(=O)c1ccc(-n2nnc3cccnc32)cc1)[C@@H]1CCCNC1                 5.71
1  C[C@H]1CNC[C@H](N(C(=O)c2ccc(-n3nnc4cccnc43)cc2)c2ncccc2Cl)C1                 4.85
2  O=C(c1ccc(-n2nnc3cccnc32)cc1)N(c1nccn1C1CC1)[C@@H]1CCCNC1                 5.16
3  O=C(c1ccc(-n2nnc3cccnc32)cc1)N(c1ncccc1Cl)[C@H]1CNC[C@H](CO)C1                 5.34
4  O=C(c1ccc(-c2cnn3cccnc23)cc1)N(c1ncccc1C1CC1)[C@@H]1CCCNC1                 5.11
5  Cc1ccnc(N(C(=O)c2ccc(-n3nnc4cccnc43)cc2)[C@@H]2CCCNC2)c1Cl                 5.96
6  O=C(c1ccc(-c2cnn3cccnc23)cc1)N(c1ncccc1-c1ccccc1)[C@@H]1CCCNC1                 5.74
7  Cc1nccnc1N(C(=O)c1ccc(-n2nnc3cccnc32)cc1)[C@@H]1CCCNC1                 5.74

## Task Report pIC50 for O=C(c1ccc(-n2nnc3cccnc32)cc1)N(c1ncccc1Cl)[C@H]1CNC[C@H](CO)C1 (racemic) please.
## Result 5.05

## Task Report pIC50 for `O=C(c1ccc(-n2nnc3cccnc32)cc1)N(c1ncccc1OC(F)(F)F)[C@@H]1CCCNC1` please.
## Result 5.27

## Task Report pIC50 for `Cn1ccc2ccnc(N(C(=O)c3ccc(-n4nnc5cccnc54)cc3)[C@@H]3CCCNC3)c21` please.
## Result 6.24
